Target: Deoxyhypusine synthase (Homo sapiens)
Assay: Competitive inhibition of human N-terminal His6-tagged TEV protease site linked DHPS expressed in Escherichia coli BL21 (DE3) assessed as reduction in radiolabelled amino-butylidene incorporation in eIF5A using 100 uM of [3H]Spermidine trichloride as substrate after 90 to 120 mins in presence of eIF5A and 14 uM NAD+ by Topcount scintillation counting method
measure: pIC50
As a rule, pIC50 stands for the negative log10 of the concentration, concentration in M.

Answer with reported pIC50 of `O=C(Nc1cccc2[nH]ccc12)c1cc2ccc(Br)cc2s1` 5.16

* * *

Parameter: IC50. Scope: all listed entries.
Target: Deoxyhypusine synthase (Homo sapiens, UniProt P49366)
Sequence (P49366 whole entry): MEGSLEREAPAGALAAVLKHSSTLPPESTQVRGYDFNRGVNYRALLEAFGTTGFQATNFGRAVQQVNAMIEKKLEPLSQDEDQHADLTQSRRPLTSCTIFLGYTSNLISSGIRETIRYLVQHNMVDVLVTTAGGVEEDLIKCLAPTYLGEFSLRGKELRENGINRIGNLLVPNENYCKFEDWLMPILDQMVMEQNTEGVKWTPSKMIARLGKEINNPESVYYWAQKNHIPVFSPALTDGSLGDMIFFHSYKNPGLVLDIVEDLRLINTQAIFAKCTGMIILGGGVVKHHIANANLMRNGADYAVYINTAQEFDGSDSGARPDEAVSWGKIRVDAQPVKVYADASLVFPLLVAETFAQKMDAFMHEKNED
Test: Inhibition of human N-terminal His6-tagged TEV protease site linked DHPS expressed in Escherichia coli BL21 (DE3) assessed as reduction in radiolabelled amino-butylidene incorporation in eIF5A using [3H]Spermidine trichloride as substrate after 90 to 120 mins in presence of eIF5A and 14 uM NAD+ by Topcount scintillation counting method
Numeric answer only, unit µM assumed.

| structure notation | units of measure | IC50 |
| --- | --- | --- |
| NC(=O)c1ccc2cc(C(=O)Nc3cccc4[nH]ccc34)sc2c1 | µM | 11 |
| O=C(Nc1cccc2[nH]ccc12)c1cc2ccc(I)cc2s1 | µM | 0.092 |
| N#Cc1ccc2cc(C(=O)Nc3cccc4[nH]ccc34)sc2c1 | µM | 0.43 |
| CC(C)(C)c1ccc(C(=O)Nc2cccc3c2CC(=O)N3)cc1 | µM | 42 |
| N=C(N)NCCCCCCCN | µM | 0.14 |

Answer with reported IC50 of `CC(C)(C)c1ccc2cc(C(=O)Nc3cccc4[nH]ccc34)sc2c1` 5.4

Answer with reported IC50 of `O=C(Nc1cccc2[nH]ccc12)c1cc2ccc(Br)cc2s1` 0.062
